# Test system: chymotrypsin
# assay-text: Proteolysis of peptoids and peptides by chymotrypsin (RP-HPLC)
# condition-summary: chymotrypsin (isolated protease) in Tris buffer, pH 8
Where a SMILES comes first, the peptide text is derived from it. The star is where a group is joined. Fmoc = O=C(OCC1c2ccccc2-c2ccccc21)*
test-readout: remaining at 5 min, 0.476 mg/mL (%)
The response must be a number in % with no trailing unit.

*Q* If you can, please state the reported remaining at 5 min, 0.476 mg/mL value of CC(C)C[C@H](NC(=O)OCC1c2ccccc2-c2ccccc21)C(=O)N[C@@H](CC(=O)O)C(=O)N[C@@H](Cc1ccccc1)C(=O)N[C@@H](CO)C(=O)N[C@@H](CCCCN)C(=O)NCC(=O)O [PEPTIDE, FMOC-LDFSKG-OH] (Fmoc-LDFSKG-OH) .
*A* 75
